- Test Details: yeast display, Sf9 membrane polyspecificity reagent, FACS + sequencing; frameworks hold sequencing errors
Measured Property: polyreactivity (PSR sort gate)

QUERY: Suppose we examine the sequence QVQLGESGGGLVQAGGSLRLSCAASGSIFSRYTMGWYREAPGKERELVAAITSSGGRTYYADSVKGRFTISRDNAKNTVYLQMNRLKAEDTAVYYCAARYFSSFPLYYYWGQGTQVTVSS ; what polyreactivity (PSR sort gate) value has been reported?
RESULT: high polyreactivity

QUERY: Can you handle QVHLVDSGGGLVQAGGSLRLTCSASGFTFRYYTMGWYIQAPGKERELVAVIRSTGSTNYADSVKGRFTISRDNAKNTVYLQMNSLKPEDTAVYYFNAARGWYNPPKYGSIGFDFWGQGTQVTVSS next?
RESULT: high polyreactivity
